From: patent USRE47428E1

- Assay Target: Y641N EZH2 (Homo sapiens, UniProt Q15910, Y641N)
- Sequence (Q15910 whole entry Y641N): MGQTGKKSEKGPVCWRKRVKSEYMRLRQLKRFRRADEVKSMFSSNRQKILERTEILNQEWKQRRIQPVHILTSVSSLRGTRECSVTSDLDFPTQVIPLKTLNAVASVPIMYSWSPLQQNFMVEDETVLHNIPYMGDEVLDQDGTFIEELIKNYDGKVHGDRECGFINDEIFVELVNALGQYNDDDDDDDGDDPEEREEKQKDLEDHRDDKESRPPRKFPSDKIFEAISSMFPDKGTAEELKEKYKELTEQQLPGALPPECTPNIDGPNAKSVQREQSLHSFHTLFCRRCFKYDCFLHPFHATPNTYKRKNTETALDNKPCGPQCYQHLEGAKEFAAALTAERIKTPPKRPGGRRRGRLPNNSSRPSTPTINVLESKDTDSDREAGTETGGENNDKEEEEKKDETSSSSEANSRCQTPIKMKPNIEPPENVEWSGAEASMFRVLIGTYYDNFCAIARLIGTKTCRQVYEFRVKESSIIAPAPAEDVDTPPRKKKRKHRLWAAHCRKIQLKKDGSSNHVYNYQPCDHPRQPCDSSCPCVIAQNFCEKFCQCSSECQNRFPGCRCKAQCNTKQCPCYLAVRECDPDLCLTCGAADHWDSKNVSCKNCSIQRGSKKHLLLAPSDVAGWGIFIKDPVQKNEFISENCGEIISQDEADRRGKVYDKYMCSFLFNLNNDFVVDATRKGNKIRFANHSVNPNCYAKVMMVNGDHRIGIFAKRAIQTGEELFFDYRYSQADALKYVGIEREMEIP
- Sequence (O75530 whole entry partner): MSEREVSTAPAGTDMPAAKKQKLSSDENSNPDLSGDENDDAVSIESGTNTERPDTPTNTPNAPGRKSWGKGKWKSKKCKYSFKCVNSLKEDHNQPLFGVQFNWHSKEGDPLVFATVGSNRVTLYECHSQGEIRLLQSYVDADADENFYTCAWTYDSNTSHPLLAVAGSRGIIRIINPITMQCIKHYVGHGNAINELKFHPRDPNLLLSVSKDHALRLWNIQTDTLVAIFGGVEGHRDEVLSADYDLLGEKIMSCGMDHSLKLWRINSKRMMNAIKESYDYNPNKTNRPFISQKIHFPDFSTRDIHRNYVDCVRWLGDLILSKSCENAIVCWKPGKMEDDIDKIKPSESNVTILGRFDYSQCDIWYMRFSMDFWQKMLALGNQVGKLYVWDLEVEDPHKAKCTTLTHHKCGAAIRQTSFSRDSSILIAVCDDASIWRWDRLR
- Sequence (Q15022 whole entry partner): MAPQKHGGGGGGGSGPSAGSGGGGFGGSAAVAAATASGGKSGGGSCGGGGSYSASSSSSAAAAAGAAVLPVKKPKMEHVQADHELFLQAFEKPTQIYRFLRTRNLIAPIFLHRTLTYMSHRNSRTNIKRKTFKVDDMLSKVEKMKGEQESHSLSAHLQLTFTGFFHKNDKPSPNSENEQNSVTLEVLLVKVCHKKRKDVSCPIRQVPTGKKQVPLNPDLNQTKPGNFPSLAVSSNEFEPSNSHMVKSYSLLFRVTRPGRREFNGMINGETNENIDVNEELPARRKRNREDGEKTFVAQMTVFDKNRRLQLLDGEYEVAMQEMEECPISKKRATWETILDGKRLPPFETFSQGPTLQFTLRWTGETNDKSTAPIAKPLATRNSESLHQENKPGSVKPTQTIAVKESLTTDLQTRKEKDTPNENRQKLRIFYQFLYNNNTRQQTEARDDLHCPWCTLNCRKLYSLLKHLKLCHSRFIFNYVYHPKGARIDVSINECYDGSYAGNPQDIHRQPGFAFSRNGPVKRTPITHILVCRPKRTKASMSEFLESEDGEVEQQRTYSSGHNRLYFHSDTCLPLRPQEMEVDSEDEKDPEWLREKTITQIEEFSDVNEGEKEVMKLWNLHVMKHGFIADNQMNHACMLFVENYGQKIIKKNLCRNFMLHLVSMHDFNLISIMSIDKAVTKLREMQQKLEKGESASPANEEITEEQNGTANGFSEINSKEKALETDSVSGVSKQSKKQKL
- Method Description: Y641N EZH2 assay, H3K27Me2 oligonucleosomes as substrate
- Assay type: biochemical
- Protocol: Assays were carried out by mixing rPRC2 together with biotinylated oligonucleosome substrates in the presence of the radio-labeled enzyme co-factor, S-adenosyl-L-methionine (^3H SAM) (Perkin Elmer) and monitoring the enzymatically mediated transfer of tritiated methyl groups from ^3H SAM to histone lysine residues. […]
Endpoint Name: IC50

Lookup result for Cc1cc(C)c(CNC(=O)c2c(C)n(C(C)C3CCN(C4COC4)CC3)c3ccccc23)c(=O)[nH]1 (single isomer, unassigned) ; measured IC50: < 100 nM

Record summary for COc1cc(C)[nH]c(=O)c1CNC(=O)c1c(C)n(C(C)C2CCC(F)(F)CC2)c2ccccc12 (racemic) : reported IC50 = < 100 nM

The recorded IC50 for entry COc1cc(C)[nH]c(=O)c1CNC(=O)c1c(C)n(C(C)C(C)OC)c2ncccc12 (single isomer, unassigned) equals 100 to 1000 nM

// recorded IC50 for COCCN1CCC(C(C)n2c(C)c(C(=O)NCc3c(OC)cc(C)[nH]c3=O)c3ccccc32)CC1 (single isomer, unassigned) : < 100 nM

Entry under test: CCc1cc(C)[nH]c(=O)c1CNC(=O)c1c(C)n(C(C)C2CCN(C)CC2)c2ccccc12 (single isomer, unassigned) . Its IC50 was < 100 nM

Entry COc1cc(C)[nH]c(=O)c1CNC(=O)c1c(C)n(C(C)C2CCN(C3COC3)CC2)c2ccccc12 (single isomer, unassigned) , IC50 reported as < 100 nM
